system.name: UniProt:P43220
run.description: GLP-1R Activation - cAMP Assay
Assay type: cell-based
test.settings: cAMP increase in CHO cells stably expressing GLP-1R; each compound run on one of the two cAMP assays (Assay 1 or Assay 2, not specified)
Kindly supply the reported pEC50 values for the records listed here.
Numbers only, as −log10 of the molar value.

# count of solved cases: 5
| molecule | system.name | pEC50 |
| --- | --- | --- |
| CC[C@@H]1OCC[C@H]1n1c(Cc2cc(F)c(-c3cccc(OCc4ccc(C#N)cc4F)n3)cc2F)nc2ccc(C(=O)O)cc21 | UniProt:P43220 | 8.18 |
| N#Cc1ccc(COc2cccc(-c3cc(F)c(Cc4nc5ccc(C(=O)O)cc5n4[C@H]4COC[C@@H]4C(F)F)cc3F)n2)c(F)c1 (single isomer, unassigned) | UniProt:P43220 | 8.97 |
| CC1(C)COC[C@H]1n1c(Cc2cc(F)c(-c3cccc(OCc4ccc(C(F)F)cc4F)n3)cc2F)nc2ccc(C(=O)O)cc21 (single isomer, unassigned) [Example 383A] | UniProt:P43220 | 9.13 |
| CC1(C)COC[C@H]1n1c(Cc2c(F)cc(-c3cccc(OCc4ccc(-n5ccnn5)cc4F)n3)c(F)c2F)nc2c(F)cc(C(=O)O)cc21 | UniProt:P43220 | 10.89 |
| COCCn1c(Cc2cc(F)c(-c3cccc(OCc4ccc(C(C)(F)F)cc4)n3)cc2F)nc2ccc(C(=O)O)cc21 | UniProt:P43220 | 9.01 |

Now for another entry.
Task item: Query pEC50 on UniProt:P43220 for "COc1cc(-c2cnn(C)c2)ncc1COc1cccc(-c2cc(F)c(Cc3nc4ccc(C(=O)O)cc4n3C[C@@H](C)OC)cc2F)n1"
Reply: 8.69

* * *

Assign pEC50 to each entry below.
system.name: GLP-1R (Homo sapiens, UniProt P43220)
Sequence (P43220 24-463): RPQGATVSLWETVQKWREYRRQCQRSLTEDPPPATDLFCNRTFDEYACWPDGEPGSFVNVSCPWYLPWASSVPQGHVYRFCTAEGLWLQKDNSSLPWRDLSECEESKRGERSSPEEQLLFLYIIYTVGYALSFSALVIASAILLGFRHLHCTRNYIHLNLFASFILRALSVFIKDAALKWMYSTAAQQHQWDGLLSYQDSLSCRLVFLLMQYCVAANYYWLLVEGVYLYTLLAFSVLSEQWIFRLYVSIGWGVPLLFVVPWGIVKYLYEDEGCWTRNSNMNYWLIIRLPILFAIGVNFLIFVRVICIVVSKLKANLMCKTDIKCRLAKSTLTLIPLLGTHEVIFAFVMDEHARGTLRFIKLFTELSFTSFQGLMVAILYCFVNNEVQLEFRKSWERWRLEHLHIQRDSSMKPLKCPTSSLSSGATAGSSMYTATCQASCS
run.description: GLP-1R Activation - cAMP Assay
Format: cell-based
test.settings: cAMP increase in CHO cells stably expressing GLP-1R; each compound run on one of the two cAMP assays (Assay 1 or Assay 2, not specified)
Answers are plain numbers, as −log10 of the molar value.

| compound | pEC50 |
| --- | --- |
| COC(=O)N1Cc2ccc(COc3cccc(-c4cc(F)c(Cc5nc6c(F)cc(C(=O)O)cc6n5C[C@@H]5CCO5)cc4F)n3)cc2C1 | 10.38 |
| COCCn1c(Cc2cc(F)c(-c3cccc(OCc4ccc(C#N)cc4F)n3)cc2F)nc2c(-c3cnn(CCN4CCOCC4)c3)cc(C(=O)O)cc21 | 6.04 |
| COCCn1c(Cc2c(F)cc(-c3cccc(OCc4ccc(Cl)cc4)n3)c(F)c2F)nc2c(F)cc(C(=O)O)cc21 | 9.73 |
| COCCn1c(Cc2cc(F)c(-c3cccc(OCc4cnc(Cl)cc4OC)n3)cc2F)nc2c(F)cc(C(=O)O)cc21 | 10.12 |
| N#Cc1ccc(COc2cccc(-c3cc(F)c(Cc4nc5ccc(C(=O)O)cc5n4[C@H]4C[C@H]5CO[C@@H]4C5)cc3F)n2)c(F)c1 | 8.92 |
| CC1(C)COC[C@H]1n1c(Cc2cc(F)c(-c3cccc(OCc4ccc(C#N)cc4F)n3)cc2F)nc2c(Cl)cc(C(=O)O)cc21 | 10.42 |
| N#Cc1ccc(COc2cccc(-c3cc(F)c(Cc4nc5ccc(C(=O)O)cc5n4[C@@H]4C[C@@H]5CC[C@H]4O5)cc3F)n2)c(F)c1 | 9.41 |
| CC1(C)COC[C@H]1n1c(Cc2cc(F)c(-c3ccc(F)c(OCc4ccc(C#N)cc4F)n3)cc2F)nc2ccc(C(=O)O)cc21 | 10.59 |

List pEC50 for every entry below, keeping the order given.
1. CC1(C)COC[C@H]1n1c(Cc2cc(F)c(-c3cccc(OCc4c(F)cc(C#N)cc4F)n3)cc2F)nc2c(F)cc(C(=O)O)cc21
2. COCCn1c(Cc2cc(F)c(-c3cccc(OCc4ccc(Cl)cc4)n3)cc2Cl)nc2c(F)cc(C(=O)O)cc21
3. C[C@H]1COC[C@H]1n1c(Cc2cc(F)c(-c3ccnc(OCc4ccc(Cl)cc4F)n3)cc2F)nc2ccc(C(=O)O)cc21
4. CC1(C)COC[C@H]1n1c(Cc2cc(F)c(-c3cccc(OCc4ccc(-n5ccnn5)cc4F)n3)cc2F)nc2ccc(C(=O)O)cc21
5. COCCn1c(Cc2cc(F)c(-c3cccc(OCc4ccc(C#N)cc4)n3)cc2F)nc2c(F)cc(C(=O)O)cc21
6. CC1(C)COC[C@H]1n1c(Cc2cc(F)c(-c3cccc(OCc4ccc(C#N)cc4F)n3)cc2F)nc2cnc(C(=O)O)cc21
7. N#Cc1ccc(COc2nc(-c3cc(F)c(Cc4nc5c(F)cc(C(=O)O)cc5n4C4COCC45CC5)cc3F)ccc2F)c(F)c1 (stereo not shown)

Reply:
9.29
9.97
9.81
10.57
9.22
8.50
9.29

Batch request: pEC50 for each of the following compounds.
1. CC1(C)COCC1n1c(Cc2cc(F)c(-c3cccc(OCc4cnc(Cl)cn4)n3)cc2F)nc2ccc(C(=O)O)cc21 (stereo not shown)
2. CC1(C)COC[C@H]1n1c(Cc2cc(F)c(-c3ccc(F)c(OCc4ccc(C#N)cc4)n3)cc2F)nc2ccc(C(=O)O)nc21
3. N#Cc1ccc(COc2cccc(-c3ccc(Cc4nc5ccc(C(=O)O)cc5n4[C@@H]4CCOC4)c(F)c3)n2)c(F)c1
4. COc1cc(Cl)ncc1COc1cccc(-c2cc(F)c(Cc3nc4c(F)cc(C(=O)O)cc4n3[C@@H]3COCC3(C)C)cc2F)n1

Reply:
[9.46, 9.80, 7.91, 10.39]

Dear colleague, could you send me pEC50 for each of the items below? Thanks.
1. COC[C@H]1COC[C@H]1n1c(Cc2cc(F)c(-c3cccc(OCc4ccc(C#N)cc4F)n3)cc2F)nc2ccc(C(=O)O)cc21 (single isomer, unassigned) [Example 176A]
2. O=C(O)c1ccc2nc(Cc3cc(F)c(-c4cccc(OCc5ccc6nsnc6c5)n4)cc3F)n(C[C@@H]3CCO3)c2c1
3. CC1(C)COCC1n1c(Cc2cc(F)c(-c3ccc(F)c(OCc4ccc(C#N)cc4F)n3)cc2Cl)nc2ccc(C(=O)O)cc21 (stereo not shown)
4. Cc1ccc(COc2cccc(-c3cc(F)c(Cc4nc5ccc(C(=O)O)cc5n4[C@@H]4COCC4(C)C)cc3F)n2)cc1Cl
5. CO[C@H]1COCC1n1c(Cc2cc(F)c(-c3cccc(OCc4ccc(C#N)cc4F)n3)cc2F)nc2c(F)cc(C(=O)O)cc21 (single isomer, unassigned)

Reply:
10.07
9.74
9.71
9.25
10.00

Task item: What value of measured pEC50 is listed for N#Cc1ccc(COc2cccc(-c3cc(F)c(Cc4nc5ccc(C(=O)O)cc5n4[C@@H]4COC[C@@H]4CO)cc3F)n2)c(F)c1 (single isomer, unassigned) ?
Reply: 10.22

* * *

Would you kindly list pEC50 for each of these compounds?
system.name: UniProt:P43220
run.description: GLP-1R Activation - cAMP Assay
Assay type: cell-based
test.settings: cAMP increase in CHO cells stably expressing GLP-1R; each compound run on one of the two cAMP assays (Assay 1 or Assay 2, not specified)
Answers are plain numbers, as −log10 of the molar value.

Guide cases for pEC50, answers given:
| compound | value.reported |
| --- | --- |
| CC1(C)COC[C@H]1n1c(Cc2c(F)cc(-c3ccc(F)c(OCc4ccc(Cl)cc4F)n3)c(F)c2F)nc2ccc(C(=O)O)cc21 | 9.51 |
| Cc1cc(Cc2nc3c(F)cc(C(=O)O)cc3n2[C@@H]2COCC2(C)C)c(Cl)cc1-c1ccnc(OCc2ccc(C#N)cc2F)n1 | 9.46 |
| COCCn1c(Cc2cc(F)c(-c3cccc(OCc4ccc(-n5ccnc5)nc4)n3)cc2F)nc2ccc(C(=O)O)cc21 | 9.01 |
| CC1(C)COC[C@H]1n1c(Cc2cc(F)c(-c3cccc(OCc4ccc(Cl)cc4F)n3)cc2F)nc2cnc(C(=O)O)cc21 | 8.59 |
| N#Cc1ccc(COc2cccc(-c3cc(F)c(Cc4nc5ccc(C(=O)O)cc5n4[C@@H]4C[C@@H]4C(F)F)cc3F)n2)c(F)c1 | 8.58 |
| COc1nc(Cl)ccc1COc1cccc(-c2cc(F)c(Cc3nc4c(F)cc(C(=O)O)cc4n3C3COCC3(C)C)cc2F)n1 (stereo not shown) | 9.64 |
| CC1(C)COC[C@H]1n1c(Cc2cc(F)c(-c3ccc(F)c(OCc4ccc(Cl)cc4Cl)n3)cc2F)nc2ccc(C(=O)O)cc21 | 9.66 |
| COCCn1c(Cc2cc(F)c(-c3cc(Cl)cc(OCc4ccc(C#N)cc4F)n3)cc2F)nc2ccc(C(=O)O)cc21 | 8.37 |

Respectfully, I request pEC50 for each entry included below.
1. CC1(C)COC[C@H]1n1c(Cc2c(F)cc(-c3cccc(OCc4ccc(C#N)cc4F)n3)c(F)c2F)nc2ccc(C(=O)O)cc21
2. Cc1cc(Cc2nc3ccc(C(=O)O)cc3n2[C@@H]2COCC2(C)C)c(F)cc1-c1ccnc(OCc2ccc(C#N)cc2)n1
3. COCCn1c(Cc2ccc(-c3cccc(OCc4ccc(C#N)cc4F)n3)c3c2COC3)nc2ccc(C(=O)O)cc21
4. Cn1cc(-c2ccc(COc3cccc(-c4cc(F)c(Cc5nc6ccc(C(=O)O)cc6n5[C@@H]5COCC5(C)C)cc4F)n3)c(F)c2)nn1
5. CC1(C)COC[C@H]1n1c(Cc2c(F)cc(-c3cccc(OCc4ccc(Cl)cc4F)n3)cc2F)nc2ccc(C(=O)O)cc21

Reply:
10.00
9.30
7.67
10.38
9.74

Data origin: patent US12570642B2
